B1: MTMR15 (parent)
chain: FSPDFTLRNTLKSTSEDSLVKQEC

Variants of: B1
Assay: protein stability index of a GFP-peptide fusion (GPS, HEK-293T) (PSI 1-6); higher = more stable;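 note: lentivirally expressed fusions sorted by FACS into six bins by GFP to DsRed ratio, PSI derived from sequencing read proportions per bin multiplied by bin number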
Conditions: c terminus: a fixed tail appended
Everything with protein stability index lower than 2 is F; everything else, including exactly 2, is T.

{"columns": ["SEQ_STRING", "CATEGORY"],
 "data": [
  ["FSPDFTLRNTLCSTSEDSLVKQEC", "T"],
  ["FSPDFTLRNTLKSTSEDSLVKQSC", "T"],
  ["FSPDFTLRNTLHSTSEDSLVKQEC", "F"],
  ["FSPDFTLRNTLKSTSEDNLVKQEC", "F"],
  ["FSPYFTLRNTLKSTSEDSLVKQEC", "T"],
  ["FSPDFTLRNTLKSTGEDSLVKQEC", "T"],
  ["FSPDFTLRNTLKSTSEDSLVKSEC", "F"],
  ["FSPDFTLRNTLKSTSEDSLVKQEG", "T"],
  ["FSVDFTLRNTLKSTSEDSLVKQEC", "T"],
  ["FSPDFTLRNTLKSTSEDSLVKEEC", "T"],
  ["FSEDFTLRNTLKSTSEDSLVKQEC", "T"],
  ["FSPDFTLRNHLKSTSEDSLVKQEC", "T"],
  ["FSPFFTLRNTLKSTSEDSLVKQEC", "F"],
  ["FSPDFTLRNLLKSTSEDSLVKQEC", "T"],
  ["FSPDFTLRNTLKSTSEDSLVKQFC", "T"],
  ["FSPDRTLRNTLKSTSEDSLVKQEC", "T"],
  ["FSPDFTLRNTLKSTSEDSRVKQEC", "T"],
  ["RSPDFTLRNTLKSTSEDSLVKQEC", "T"]
]}
